biological target: human 5HT2A receptor (Homo sapiens)
Sequence (P28223 whole entry): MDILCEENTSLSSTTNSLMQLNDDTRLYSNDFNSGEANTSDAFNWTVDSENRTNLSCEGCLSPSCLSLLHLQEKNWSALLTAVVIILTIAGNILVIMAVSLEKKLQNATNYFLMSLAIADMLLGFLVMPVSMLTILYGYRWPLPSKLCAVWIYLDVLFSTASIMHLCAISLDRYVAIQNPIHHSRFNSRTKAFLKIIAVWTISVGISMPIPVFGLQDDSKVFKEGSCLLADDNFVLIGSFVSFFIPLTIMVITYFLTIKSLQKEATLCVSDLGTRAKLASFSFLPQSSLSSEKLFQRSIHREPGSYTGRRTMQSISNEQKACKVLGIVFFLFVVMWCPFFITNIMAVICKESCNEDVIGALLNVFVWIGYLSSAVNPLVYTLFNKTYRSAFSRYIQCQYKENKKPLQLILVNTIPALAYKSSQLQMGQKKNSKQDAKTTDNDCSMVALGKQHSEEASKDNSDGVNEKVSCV
pKi: −log10 of the molar value. Counter-ions that a name gives are not always drawn.

{"Compound": "COC(=O)C1=C(C)NC(=O)N(C(=O)NCCCN2CCC3(CC2)OCc2ccccc23)C1c1ccc(F)c(F)c1 (centres unmarked) [Example 20]", "pKi": 5.55}
{"Compound": "COC(=O)C1=C(C)NC(=O)N(C(=O)NCCCN2CCC3(CC2)OCc2ccccc23)C1c1ccc2nonc2c1 (single isomer, unassigned) [Example 18, HYDROCHLORIDE]", "pKi": 5.80}

###

molecular target: human GALR3 receptor (Homo sapiens, UniProt O60755); construct: expressed in transfected cells; test: Binding affinity at the human GALR3 receptor; settings: Table 3b; read-out: hGALR3 Ki
Sequence (O60755 whole entry): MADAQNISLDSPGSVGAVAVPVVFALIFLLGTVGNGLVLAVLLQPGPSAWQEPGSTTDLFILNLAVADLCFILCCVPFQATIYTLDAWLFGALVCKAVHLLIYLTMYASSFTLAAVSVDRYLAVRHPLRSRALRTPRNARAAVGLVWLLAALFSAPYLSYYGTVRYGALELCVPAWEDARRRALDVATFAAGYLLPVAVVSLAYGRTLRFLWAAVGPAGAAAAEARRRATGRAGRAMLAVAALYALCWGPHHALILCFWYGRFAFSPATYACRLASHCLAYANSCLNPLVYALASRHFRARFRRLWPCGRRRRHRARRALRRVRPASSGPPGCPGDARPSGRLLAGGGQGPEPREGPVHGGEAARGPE
pKi: −log10 of the molar value. Where a name gives a salt, the structure may show the parent alone.

{"Compound": "CCC1=C(C(=O)O)C(c2ccc(F)c(F)c2)N(C(=O)NCCCN2CCC3(CC2)OCc2ccccc23)C(=O)N1 (single isomer, unassigned; (+)) [Example 4, HYDROCHLORIDE]", "pKi": "< 4.30"}
{"Compound": "CCCCN(CCCC)c1ccc(CN2CCC(CNC(=O)N3C(=O)NC(C)=C(C(=O)OC)C3c3ccc4nonc4c3)CC2)cc1 (stereo not shown) [Example 6]", "pKi": 4.68}
{"Compound": "COCC1=C(C(=O)OC)C(c2ccc(F)c(F)c2)N(C(=O)NCCCN2CC=C(c3cccc(NC(C)=O)c3)CC2)C(=O)N1 (stereo not shown) [Example 2]", "pKi": "< 4.30"}
{"Compound": "COCC1=C(C(=O)OC)C(c2ccc(F)c(F)c2)N(C(=O)NCCCN2CCC(c3cccc4ccccc34)CC2)C(=O)N1 (single isomer, unassigned; (+)) [Example 14]", "pKi": "< 4.30"}

###

biological target: rat MCH1 receptor (Rattus norvegicus, UniProt P97639); construct: expressed in transfected cells; assay: Binding affinity (Ki) at the rat MCH1 receptor; conditions: Table 3c; read-out: rMCH1 Ki
Sequence (P97639 whole entry): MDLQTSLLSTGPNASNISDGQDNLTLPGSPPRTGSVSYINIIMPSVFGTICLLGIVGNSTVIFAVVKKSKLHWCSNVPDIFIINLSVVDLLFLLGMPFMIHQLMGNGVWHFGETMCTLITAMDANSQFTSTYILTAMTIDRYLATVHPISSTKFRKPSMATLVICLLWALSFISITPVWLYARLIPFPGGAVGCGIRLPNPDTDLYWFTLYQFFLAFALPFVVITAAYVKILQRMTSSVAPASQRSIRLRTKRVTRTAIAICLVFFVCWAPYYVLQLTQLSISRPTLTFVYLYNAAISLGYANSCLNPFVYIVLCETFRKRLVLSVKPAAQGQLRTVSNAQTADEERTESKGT

{"Compound": "COCC(=O)Nc1cccc(C2CCN(CCCNC(=O)N3C(=O)NC(COC)=C(C(=O)OC)[C@@H]3c3ccc(F)c(F)c3)CC2)c1 [Example 39]", "Ki [nM]": 3.33}
{"Compound": "Cc1ccc(C(=O)CCCN2CCC(c3cccc(NC(=O)C4CCCCC4)c3)CC2)cc1C [Example 59]", "Ki [nM]": 768}
{"Compound": "CCC(=O)Nc1cccc(C2CCN(CCCNC(=O)C3=C(COC)NC(=O)N[C@@H]3c3ccc(F)c(F)c3)CC2)c1 [Example 46]", "Ki [nM]": 8.16}
{"Compound": "CC(C)C(=O)Nc1cccc(C2CCN(CCCC(=O)c3ccc(Oc4ccccc4)cc3)CC2)c1 [Example 82]", "Ki [nM]": 192}

###

target: human Histamine H1 receptor (Homo sapiens, UniProt P35367); construct: expressed in transfected cells; assay: Binding affinity at the human histamine H1 receptor; conditions: Table 3c; read-out: hH1 Ki
Sequence (P35367 whole entry): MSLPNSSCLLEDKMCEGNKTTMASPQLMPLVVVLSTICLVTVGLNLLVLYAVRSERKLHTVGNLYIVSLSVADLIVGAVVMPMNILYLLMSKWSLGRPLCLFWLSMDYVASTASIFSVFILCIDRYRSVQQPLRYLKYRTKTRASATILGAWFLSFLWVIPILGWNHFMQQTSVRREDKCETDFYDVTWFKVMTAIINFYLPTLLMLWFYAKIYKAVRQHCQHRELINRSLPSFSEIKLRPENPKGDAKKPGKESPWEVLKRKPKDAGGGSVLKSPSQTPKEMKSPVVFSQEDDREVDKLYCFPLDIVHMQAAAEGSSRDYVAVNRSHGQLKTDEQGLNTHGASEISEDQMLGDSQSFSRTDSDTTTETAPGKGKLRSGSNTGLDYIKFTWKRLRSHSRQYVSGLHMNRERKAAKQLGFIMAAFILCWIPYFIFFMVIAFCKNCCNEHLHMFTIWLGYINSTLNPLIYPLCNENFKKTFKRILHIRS
Listed compounds paired with reported Ki
Measurement Kind: Ki (µM)

{"Compound": "CC(C)C(=O)Nc1cccc(C2CCN(CC[C@H](Oc3ccc(Cl)cc3)c3ccccc3)CC2)c1", "Measurement Kind": "Ki", "Result Comparator": "=", "Recorded Value": 0.264}
{"Compound": "CC(C)C(=O)Nc1cccc(C2CCN(CCCC(=O)c3ccc(Cl)cc3)CC2)c1", "Measurement Kind": "Ki", "Result Comparator": "=", "Recorded Value": 0.461}
{"Compound": "COCC1=C(C(=O)OC)[C@H](c2ccc(F)c(F)c2)N(C(=O)NCCCN2CCC(c3cccc(N)c3)CC2)C(=O)N1", "Measurement Kind": "Ki", "Result Comparator": "=", "Recorded Value": 0.379}
{"Compound": "CC(=O)Nc1cccc(C2CCN(CCCC(=O)c3ccc(Cl)cc3)CC2)c1", "Measurement Kind": "Ki", "Result Comparator": "=", "Recorded Value": 1.73}
{"Compound": "CC(C)C(=O)Nc1cccc(C2CCN(CC[C@H](Oc3ccc(C(F)(F)F)cc3)c3ccccc3)CC2)c1", "Measurement Kind": "Ki", "Result Comparator": "=", "Recorded Value": 1.32}
{"Compound": "CC(=O)Nc1cccc(C2CCN(CCCNC(=O)N3C(=O)NC4=C(C(=O)OC4)C3c3ccc4c(c3)OCO4)CC2)c1 (stereo not drawn)", "Measurement Kind": "Ki", "Result Comparator": "=", "Recorded Value": 10.4}
{"Compound": "CC(C)C(=O)Nc1cccc(C2CCN(CCCCN3C(=O)c4ccccc4C3=O)CC2)c1", "Measurement Kind": "Ki", "Result Comparator": "=", "Recorded Value": 6.59}
{"Compound": "CCC(=O)Nc1cccc(C2CCN(CCCNC(=O)N3C(=O)NC(COC)=C(C(=O)OC)[C@@H]3c3ccc(F)c(F)c3)CC2)c1", "Measurement Kind": "Ki", "Result Comparator": "=", "Recorded Value": 4.54}
{"Compound": "CC(C)C(=O)Nc1cccc(C2CCN(CC[C@@H](O)c3ccccc3)CC2)c1", "Measurement Kind": "Ki", "Result Comparator": "=", "Recorded Value": 48.7}
{"Compound": "CC(C)C(=O)Nc1cccc(C2CCN(CC[C@@H](Oc3ccc(Cl)c(Cl)c3)c3ccccc3)CC2)c1", "Measurement Kind": "Ki", "Result Comparator": "=", "Recorded Value": 1.1}
{"Compound": "CC(C)OC(CCN1CCC(c2cccc(NC(=O)C(C)C)c2)CC1)c1ccccc1 (stereo not drawn)", "Measurement Kind": "Ki", "Result Comparator": "=", "Recorded Value": 11.1}
{"Compound": "COc1ccc(C(C)=O)cc1O[C@@H](CCN1CCC(c2cccc(NC(=O)C(C)C)c2)CC1)c1ccccc1", "Measurement Kind": "Ki", "Result Comparator": "=", "Recorded Value": 25.3}
{"Compound": "CC(C)C(=O)Nc1cccc(C2CCN(CC[C@H](Oc3cccc(Cl)c3)c3ccccc3)CC2)c1", "Measurement Kind": "Ki", "Result Comparator": "=", "Recorded Value": 0.13}
{"Compound": "COC(=O)C1=C(C)NC(=O)N(C(=O)NCCCN2CCC(c3cccc(NC(C)=O)c3)CC2)[C@H]1c1ccc(F)c(F)c1", "Measurement Kind": "Ki", "Result Comparator": "=", "Recorded Value": 7.23}
{"Compound": "CC(C)C(=O)Nc1cccc(C2CCN(CC[C@@H](Oc3cccc([N+](=O)[O-])c3)c3ccccc3)CC2)c1", "Measurement Kind": "Ki", "Result Comparator": "=", "Recorded Value": 0.507}
{"Compound": "COCC1=C(C(=O)OC)C(c2ccc(F)c(F)c2)N(C(=O)NCCCN2CCC(c3cc(F)ccc3OC)CC2)C(=O)N1 (stereo not drawn)", "Measurement Kind": "Ki", "Result Comparator": "=", "Recorded Value": 0.0469}
{"Compound": "COCC1=C(C(=O)OC)[C@H](c2ccc(F)c(F)c2)N(C(=O)NCCCN2CCC(c3cccc(NC(=O)CC(C)C)c3)CC2)C(=O)N1", "Measurement Kind": "Ki", "Result Comparator": "=", "Recorded Value": 7.8}
{"Compound": "COC(CCN1CCC(c2cccc(NC(=O)C(C)C)c2)CC1)c1ccccc1 (stereo not drawn)", "Measurement Kind": "Ki", "Result Comparator": "=", "Recorded Value": 16.7}
{"Compound": "O=C(Cc1ccccc1)Nc1cccc(C2CCN(CCCC(=O)c3ccc(Cl)cc3)CC2)c1", "Measurement Kind": "Ki", "Result Comparator": "=", "Recorded Value": 0.571}
{"Compound": "CC(C)C(=O)Nc1cccc(C2CCN(Cc3cc(C(F)(F)F)cc(C(F)(F)F)c3)CC2)c1", "Measurement Kind": "Ki", "Result Comparator": "=", "Recorded Value": 36.9}
{"Compound": "CC(C)C(=O)Nc1cccc(C2CCN(CCCC(c3ccc(F)cc3)c3ccc(F)cc3)CC2)c1", "Measurement Kind": "Ki", "Result Comparator": "=", "Recorded Value": 0.0034}
{"Compound": "CC(=O)Nc1cccc(C2CCN(CCCNC(=O)N3C(=O)OC[C@@H]3c3cc(F)cc(F)c3)CC2)c1", "Measurement Kind": "Ki", "Result Comparator": "=", "Recorded Value": 33.1}
{"Compound": "CC(C)C(=O)Nc1cccc(C2CCN(CC[C@H](Oc3ccc(C#N)cc3)c3ccccc3)CC2)c1", "Measurement Kind": "Ki", "Result Comparator": "=", "Recorded Value": 0.59}
{"Compound": "CCOc1ccccc1O[C@@H](CCN1CCC(c2cccc(NC(=O)C(C)C)c2)CC1)c1ccccc1", "Measurement Kind": "Ki", "Result Comparator": "=", "Recorded Value": 9.79}
{"Compound": "Cc1ccc(C(=O)CCCN2CCC(c3cccc(NC(=O)C(C)C)c3)CC2)cc1C", "Measurement Kind": "Ki", "Result Comparator": "=", "Recorded Value": 0.7}
{"Compound": "CC(=O)Nc1cccc(C2CCN(CCCNC(=O)N3C(=O)OCC3Cc3ccc(F)cc3)CC2)c1 (stereo not drawn)", "Measurement Kind": "Ki", "Result Comparator": "=", "Recorded Value": 39.7}
{"Compound": "COc1cc(C#N)ccc1O[C@@H](CCN1CCC(c2cccc(NC(=O)C(C)C)c2)CC1)c1ccccc1", "Measurement Kind": "Ki", "Result Comparator": "=", "Recorded Value": 25.3}
{"Compound": "CC(C)C(=O)Nc1cccc(C2CCN(CC[C@H](OC(=O)c3cccc4ccccc34)c3ccccc3)CC2)c1", "Measurement Kind": "Ki", "Result Comparator": ">", "Recorded Value": 50}
{"Compound": "CC(C)C(=O)Nc1cccc(C2CCN(CC[C@H](Oc3ccc(Br)cc3)c3ccccc3)CC2)c1", "Measurement Kind": "Ki", "Result Comparator": "=", "Recorded Value": 0.546}
{"Compound": "CC(=O)Nc1cccc(C2CCN(CCCNC(=O)N3C(=O)OC[C@@H]3c3cc(F)c(F)c(F)c3)CC2)c1", "Measurement Kind": "Ki", "Result Comparator": "=", "Recorded Value": 6.52}
